Where do the numbers come from? From the supplement of paper PMC8671470.

Test system: myeloid leukemia patient primary cells Pat.15
assayProcedure: cell viability (% survival relative to DMSO control); higher = less cytotoxic
studyConditions: 1 nM; 72 h
measurementType: cell viability (%)
Use % as the unit, but write only the number.

cell viability recorded for this compound, Nc1nc(Cl)nc2c1ncn2[C@H]1C[C@H](O)[C@@H](CO)O1 [Cladribine] , is 95.4

cell viability recorded for this compound, O=C(O)C1=CC(=C(c2ccc(O)c(C(=O)O)c2)c2ccc(O)c(C(=O)O)c2)C=CC1=O [Aurintricarboxylic acid] , is 96.4

cell viability recorded for this compound, C[C@H](NC(=O)c1sccc1OCc1ccc(Cl)cc1)c1ccccc1 , is 92.7

cell viability recorded for this compound, Cc1c(-c2ccc(-c3ccccc3F)cc2)nc2ccc(F)cc2c1C(=O)O [Brequinar] , is 91.1

cell viability recorded for this compound, COc1cc(/C=C/C(=O)N2CCC=CC2=O)cc(OC)c1OC [Piperlongumine] , is 84

cell viability recorded for this compound, O=C(C1CC1)N1CC[C@@H](C=C2NNC(=O)N2c2ccc(-c3ccc4occc4c3)cc2)C1 , is 89.4

cell viability recorded for this compound, O=C(O)Cn1nnc(-c2cc(N3CCC(Oc4cc(F)ccc4Br)CC3)no2)n1 [MK-8245] , is 95.9
